B1: Endoglucanase C, P0C2S3 (parent)
chain: MVSFKAGINLGGWISQYQVFSKEHFDTFITEKDIETIAEAGFDHVRLPFDYPIIESDDNVGEYKEDGLSYIDRCLEWCKKYNLGLVLDMHHAPGYRFQDFKTSTLFEDPNQQKRFVDIWRFLAKRYINEREHIAFELLNEVVEPDSTRWNKLMLEYIKAIREIDSTMWLYIGGNNYNSPDELKNLADIDDDYIVYNFHFYNPFFFTHQKAHWSESAMAYNRTVKYPGQYEGIEEFVKNNPKYSFMMELNNLKLNKELLRKDLKPAIEFREKKKCKLYCGEFGVIAIADLESRIKWHEDYISLLEEYDIGGAVWNYKKMDFEIYNEDRKPVSQELVNILARRKT

Variants of: B1
APPLIED CONDITIONS: Acetivibrio thermocellus; pH 7.2; Thermal; DSC; Tris 20 mM; reversible: No; structure 1CEC; whole UniProt chain shown
RECORDED METRIC: change of melting temperature, mutant - wild type (higher = more stable) (°C)
I only need the number, in °C, no unit after it.

stdin: Sample I293A — what was its change of melting temperature, mutant - wild type (higher = more stable)?
stdout: -2.8

stdin: Sample E333G — what was its change of melting temperature, mutant - wild type (higher = more stable)?
stdout: -1

stdin: Sample N9D — what was its change of melting temperature, mutant - wild type (higher = more stable)?
stdout: -6.5

stdin: Sample N220D T222A — what was its change of melting temperature, mutant - wild type (higher = more stable)?
stdout: -2.1
